system-tested: Mucolipin-3 (Homo sapiens) (UniProt Q8TDD5)
Sequence (Q8TDD5 whole entry, looked up): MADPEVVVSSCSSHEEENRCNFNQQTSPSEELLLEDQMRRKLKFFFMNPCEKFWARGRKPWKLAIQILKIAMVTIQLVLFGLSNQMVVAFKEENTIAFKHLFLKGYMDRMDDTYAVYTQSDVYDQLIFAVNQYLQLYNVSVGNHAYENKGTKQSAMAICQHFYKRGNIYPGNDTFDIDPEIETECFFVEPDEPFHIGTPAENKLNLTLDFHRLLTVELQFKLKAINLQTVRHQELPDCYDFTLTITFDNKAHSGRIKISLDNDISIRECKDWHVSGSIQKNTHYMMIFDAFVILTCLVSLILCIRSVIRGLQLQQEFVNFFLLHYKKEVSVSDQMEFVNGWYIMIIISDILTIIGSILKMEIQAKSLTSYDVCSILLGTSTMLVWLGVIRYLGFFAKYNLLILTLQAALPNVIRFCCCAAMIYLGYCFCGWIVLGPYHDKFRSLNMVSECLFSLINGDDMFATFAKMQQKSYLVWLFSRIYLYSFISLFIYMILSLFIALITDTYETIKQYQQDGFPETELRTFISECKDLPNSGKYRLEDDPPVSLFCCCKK
protocol-text: activators of mucolipin-3 and mucolipin-2 – cell-based, patch clamp, Fura-2 profiling panel (AID 2116)
experimental-conditions: HEK293 cells expressing TRPML3-YFP, TRPML3 Dose Response
# EC50 listing for each entry below

O=S(=O)(Nc1ccccc1N1CCOCC1)c1ccc(Cl)s1 :: 1090 nM

# context switch: different compound, same EC50
EC50 for Mucolipin-3 (Homo sapiens) (UniProt Q8TDD5) with input O=S(=O)(NC1CCCCC1N1CCOCC1)c1ccc(Cl)cc1 (configuration not stated) equals 450 nM
